Reference source: PubChem BioAssay (NCATS)

tested on: JEG-3; test: Primary qHTS to identify gynecologic anti-cancer compounds using libraries of approved drugs and bioactive compounds (AID 1345084); conditions: Gynecologic cancer cell panel viability, ATPlite luminescence, 48 h; series mostly up to 57.5 µM; also: nearly all actives have a fitted effect of over 55% in size
Inconclusive results are not listed. Calls of active or inactive are those of the source. Calls follow the shape of the dose curve; as a rule, active = well fitted cell-killing curve with a large enough effect; inconclusive = small, poorly fitted or top-dose-only effect, or effect the other way; inactive = flat fitted curve, though single readings scatter.
The reply should be one of these categories: True for active, False for inactive

Please review the entries below; each comes with its answer.
In [3]: df
Out[3]:
                                   molecule  grouplabel
0  CCOC(=O)N1CCC(=C2c3ccc(Cl)cc3CCc3cccnc32)CC1       False
1                    CNC[C@H](O)c1cccc(O)c1       False
2              NC(N)=NC(=O)c1nc(Cl)c(N)nc1N       False
3                               Cc1cn[nH]c1       False
4  Cn1cc(-c2ccc3nnc(C(F)(F)c4ccc5ncccc5c4)n3n2)cn1       False
5  COc1cc(Oc2ccnc3cc(OC)c(OC)cc23)ccc1NC(=O)NC(C)c1nccs1 (centres undefined)       False
6  O=C(Nc1ccc(F)c(C(F)(F)F)c1)Nc1nnc(-c2ccncc2)s1       False
7  CN(C(=O)c1ccc(F)cc1C(F)(F)F)C1CCN(c2nnc(-c3ccnn3C)c3ccccc23)CC1       False

Field: next molecule
Please share the test call associated with NCCCC(N)(C(=O)O)C(F)F (centres undefined) . False
